Where do the numbers come from? From ChEMBL document CHEMBL1201862.

- System: UACC-62
- Assay procedure: NCI tumour cell line growth inhibition, 48 h
Calls of active or inactive are those of the source. Rule as the data show it: active = GI50 up to about 1.1 µM and inactive = higher.
Assay readout: GI50

# Molecule, GI50
data = [
    ("CNC(=O)N(CCCCC(NC(C)=O)C(=O)NCc1ccccc1)Cc1ccccc1 (centres undefined)", "> 100 µM (inactive)"),
    ("CC(=O)OCC(OC(C)=O)C(OC(C)=O)C(OC(C)=O)C(=O)CNn1c(-c2ccccc2)nc2ccc(Br)cc2c1=O (centres undefined)", "83.4 µM (inactive)"),
    ("O=C(CCc1ccc(O)cc1)NCCc1cccc(O)c1", "> 50 µM (inactive)"),
]

Here is the next item to consider.
Recorded GI50 for CC1CCN(C(C)C)P(=S)(Cc2ccccc2)O1 (centres undefined) with UACC-62, please?
16.7 µM (inactive)

====

// reported GI50 for each item listed
- Tested on: U-251
- Assay procedure: NCI tumour cell line growth inhibition, 48 h
Activity calls are given as the source filed them. Cut-off read from the data, not from the text of the source: active = GI50 up to about 1.1 µM and inactive = higher.

Study these solved cases before continuing.
# Molecule, Assay target, Endpoint value
rows = [
    ("NS(=O)(=O)c1ccc(/N=N/c2ccc(O)c(C(=O)O)c2)cc1 [SALAZOSULFAMIDE]", "U-251", "> 100 µM (inactive)"),
    ("Cc1cc(NS(=O)(=O)c2ccc(Nc3c4ccccc4nc4c(C(=O)NCCN(C)C)ccc(Cl)c34)cc2)no1", "U-251", "2.42 µM (inactive)"),
    ("C[Si](C)(N[Si](C)(C)OCCc1ccccc1)OCCc1ccccc1", "U-251", "> 100 µM (inactive)"),
]

Need GI50 of COC(O)C(=O)c1c2c(cc3c1CC1(Cc4cc5c(cc4C1)CCC5)C3)CCC2 (centres undefined) , thanks.
11.6 µM (inactive)

What about CC12c3c4ccc(C=O)c3Oc3ccc(C=O)c(c31)Oc1ccc(C=O)c(c12)O4 ?
> 25 µM (inactive)

What about Clc1ccc(C2=NOC(C3CCCCC3)C2)cc1 (centres undefined) ?
> 100 µM (inactive)

What about CC(=O)O[C@H]1CCC2[C@@H]3CCC4Nc5c(cnn5-c5ccccc5)C[C@]4(C)C3CC[C@@]21C (some centres undefined) ?
17.9 µM (inactive)

What about Cn1c(=O)nc2n(-c3cccc(Cl)c3)c3ccccc3nc-2c1=O ?
15.3 µM (inactive)

What about N#CC(C#N)=C1CCC2C(=C(C#N)C#N)CCC12 (centres undefined) ?
> 100 µM (inactive)

====

- Test system: HOP-92
- Assay procedure: NCI tumour cell line growth inhibition, 48 h
Calls of active or inactive are those of the source. Cut-off read from the data, not from the text of the source: active = GI50 up to about 1.1 µM and inactive = higher.
Respond only with the outcome that fits, drawn from active, inactive

Below, 5 molecules whose answers are already recorded.
# Molecule, Assigned category
rows = [
    ("Nc1ccc2c(c1)N(C(=O)c1cc3cc(NC(=O)c4cc5ccccc5o4)ccc3[nH]1)CC2CCl (stereo unspecified)", "active"),
    ("Cc1sc2nc(-c3ccc(Cl)c([N+](=O)[O-])c3)c(/C=N/NC(=N)N)n2c1C", "inactive"),
    ("O=[N+]([O-])CC(SCc1ccccc1)c1ccc2c(c1)OCO2 (stereo unspecified)", "inactive"),
    ("CCN(CC)c1c(C(=O)/C=C/c2ccc(Cl)cc2)c(-c2ccccc2)nn(C)c1=O", "inactive"),
    ("CCOC(=O)n1cncc1CC(NC(=O)Cc1c(C(=O)C=C(C)C)[nH]c2ccccc12)C(=O)OC (stereo unspecified)", "inactive"),
]

Switching to the query record.
Dear colleague, could you share the recorded outcome for c1ccc2sc(C3(N4CCC5(CC4)OCCO5)CCCCC3)cc2c1 when you have a moment?
inactive
